- Tested on: C. krusei ATCC 6258
- protocol: Anti-Fungal (Candida) Activity Assay, broth microtiter MIC
- Assay type: cell-based, Candida krusei
- condition_set: Pichia kudriavzevii, ATCC6258, 48 h, Table 3b (additional results); 3 replicates; MIC read at 48 h
- Method: Compounds of the present invention were evaluated in an Anti-Fungal Activity Assay. An exemplary procedure for the assay, which measures the susceptibility of various Candida species to anti-fungal compounds, follows. […] All species were grown from frozen stock by directly plating on to freshly prepared Sabouraud Dextrose agar (BD, Difco) and incubated overnight in ambient air at 35° C. for 24 h. […] The concentration of the suspension was determined using pre-determined standard curves. […]

>  <molecule>
CCOC(=O)c1sc2c(c1C)c(=O)n(C(C)(C)C(N)=O)c(=O)n2C[C@H](OCCO)c1cc(F)ccc1OC [Compound I-17]

>  <MIC>
2.1 to 4 µg/mL

$$$$
>  <molecule>
CCOC(=O)c1sc2c(c1C)c(=O)n(C(C)(C)C(=O)NC(C)C)c(=O)n2C[C@H](OC[C@@H](C)C#N)c1cc(F)ccc1OC [Compound I-35]

>  <MIC>
2.1 to 4 µg/mL

$$$$
>  <molecule>
CCOC(=O)c1sc2c(c1C)c(=O)n([C@@H](C)C(=O)N1CCCC1)c(=O)n2C[C@H](OCCC#N)c1cc(F)ccc1OC [Compound I-23]

>  <MIC>
0.25 to 1 µg/mL

$$$$
>  <molecule>
CCOC(=O)c1sc2c(c1C)c(=O)n([C@H](C)C(N)=O)c(=O)n2C[C@H](OCCC#N)c1cc(F)ccc1OC [Compound I-26]

>  <MIC>
0.25 to 1 µg/mL

$$$$
>  <molecule>
CCNC(=O)C(C)(C)n1c(=O)c2c(C)c(C(=O)OCC)sc2n(C[C@H](OC(C)C)c2ccccc2OC)c1=O [Compound I-4]

>  <MIC>
2.1 to 4 µg/mL

$$$$

====

IC50 listing for selected compounds.
- experimental_system: UniProt Q00955
- Sequence (Q00955 whole entry): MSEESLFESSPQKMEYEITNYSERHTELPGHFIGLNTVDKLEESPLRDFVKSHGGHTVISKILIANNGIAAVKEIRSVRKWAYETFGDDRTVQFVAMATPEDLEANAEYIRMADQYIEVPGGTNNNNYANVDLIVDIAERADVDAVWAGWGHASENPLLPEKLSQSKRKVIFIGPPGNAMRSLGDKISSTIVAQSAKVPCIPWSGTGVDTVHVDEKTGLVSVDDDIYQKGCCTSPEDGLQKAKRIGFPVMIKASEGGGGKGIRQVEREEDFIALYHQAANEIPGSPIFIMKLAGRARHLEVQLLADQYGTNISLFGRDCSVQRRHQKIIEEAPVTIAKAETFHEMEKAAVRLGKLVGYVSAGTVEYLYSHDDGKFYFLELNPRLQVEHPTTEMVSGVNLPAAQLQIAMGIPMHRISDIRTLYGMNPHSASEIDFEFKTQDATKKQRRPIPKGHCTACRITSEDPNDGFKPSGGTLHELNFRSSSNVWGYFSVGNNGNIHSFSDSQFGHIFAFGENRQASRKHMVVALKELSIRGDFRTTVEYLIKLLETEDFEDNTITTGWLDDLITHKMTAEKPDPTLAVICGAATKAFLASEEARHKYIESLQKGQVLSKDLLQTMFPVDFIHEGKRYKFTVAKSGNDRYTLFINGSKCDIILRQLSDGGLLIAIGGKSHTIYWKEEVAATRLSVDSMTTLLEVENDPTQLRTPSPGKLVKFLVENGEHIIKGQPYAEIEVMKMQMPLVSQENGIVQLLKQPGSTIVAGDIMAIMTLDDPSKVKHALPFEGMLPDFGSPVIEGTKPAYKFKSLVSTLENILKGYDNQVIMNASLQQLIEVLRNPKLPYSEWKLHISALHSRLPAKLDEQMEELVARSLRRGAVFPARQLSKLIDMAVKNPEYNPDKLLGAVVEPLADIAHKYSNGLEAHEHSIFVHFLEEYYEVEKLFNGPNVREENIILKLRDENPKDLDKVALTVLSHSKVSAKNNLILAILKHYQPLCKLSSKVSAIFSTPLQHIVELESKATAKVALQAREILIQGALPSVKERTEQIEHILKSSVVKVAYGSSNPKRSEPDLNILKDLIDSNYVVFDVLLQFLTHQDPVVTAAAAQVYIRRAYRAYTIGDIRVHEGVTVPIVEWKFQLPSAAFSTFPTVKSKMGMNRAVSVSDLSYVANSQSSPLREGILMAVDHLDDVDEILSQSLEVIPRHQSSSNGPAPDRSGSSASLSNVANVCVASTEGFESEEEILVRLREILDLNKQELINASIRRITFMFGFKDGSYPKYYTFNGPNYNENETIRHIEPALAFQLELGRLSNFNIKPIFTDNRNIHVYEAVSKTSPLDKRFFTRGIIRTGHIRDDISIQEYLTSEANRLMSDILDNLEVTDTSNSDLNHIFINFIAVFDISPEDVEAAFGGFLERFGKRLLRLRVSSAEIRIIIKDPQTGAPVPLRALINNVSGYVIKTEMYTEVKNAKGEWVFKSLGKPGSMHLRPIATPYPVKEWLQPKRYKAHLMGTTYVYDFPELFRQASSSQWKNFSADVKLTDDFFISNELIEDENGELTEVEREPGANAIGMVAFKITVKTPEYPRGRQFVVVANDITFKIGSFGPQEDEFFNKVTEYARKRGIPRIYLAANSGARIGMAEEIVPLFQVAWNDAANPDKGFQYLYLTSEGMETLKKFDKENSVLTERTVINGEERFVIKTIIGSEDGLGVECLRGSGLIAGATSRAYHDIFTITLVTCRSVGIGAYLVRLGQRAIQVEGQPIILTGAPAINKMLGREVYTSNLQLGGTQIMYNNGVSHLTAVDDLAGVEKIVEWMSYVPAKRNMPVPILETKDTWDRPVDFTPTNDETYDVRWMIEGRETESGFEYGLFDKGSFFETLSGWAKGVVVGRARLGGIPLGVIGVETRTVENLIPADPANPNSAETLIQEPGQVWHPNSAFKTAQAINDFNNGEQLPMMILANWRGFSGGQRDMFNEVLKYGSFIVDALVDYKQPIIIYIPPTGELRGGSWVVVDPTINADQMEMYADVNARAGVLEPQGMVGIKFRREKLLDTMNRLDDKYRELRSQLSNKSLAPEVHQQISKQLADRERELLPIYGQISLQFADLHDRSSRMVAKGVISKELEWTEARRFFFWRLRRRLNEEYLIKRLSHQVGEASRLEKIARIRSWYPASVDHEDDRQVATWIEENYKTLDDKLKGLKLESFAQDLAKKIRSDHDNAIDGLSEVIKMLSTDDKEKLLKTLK
- protocol: In vitro ACC2 inhibition assay (ADP-Glo), fungal ACC2
- Format: biochemical
- condition_set: Table 2a
- From the text: An exemplary procedure for the in vitro ACC inhibition assay, which can be used to determine the inhibitory action of compounds of the invention toward either human (hACC2) or fungal (fACC2) ACC2, follows. […] The ADP-Glo™ Kinase Assay is a luminescent ADP detection assay to measure enzymatic activity by quantifying the amount of ADP produced during an enzyme reaction. […] Luminescence can be correlated to ADP concentrations by using an ATP-to-ADP conversion curve. […]
measured_property: IC50

>  <mol>
CCNC(=O)C(C)(C)n1c(=O)c2c(C)c(C(=O)OCC)sc2n(C[C@H](OC(C)C)c2ccccc2OC)c1=O

>  <measured_property>
IC50

>  <endpoint_result>
3 to 10 nM

$$$$
>  <mol>
CCOC(=O)c1sc2c(c1C)c(=O)n(C(C)(C)C(=O)NC(C)C)c(=O)n2C[C@H](OC(C)C)c1ccccc1OC

>  <measured_property>
IC50

>  <endpoint_result>
0.6 to 3 nM

$$$$
>  <mol>
CCNC(=O)C(C)(C)n1c(=O)c2c(C)c(C(=O)OCC)sc2n(C[C@H](OC2CCOCC2)c2ccccc2OC)c1=O

>  <measured_property>
IC50

>  <endpoint_result>
0.6 to 3 nM

$$$$
>  <mol>
CCOC(=O)c1sc2c(c1C)c(=O)n(C(C)(C)C(=O)N1CCCC1)c(=O)n2C[C@H](OCCO)c1cc(F)ccc1OC

>  <measured_property>
IC50

>  <endpoint_result>
0.6 to 3 nM

$$$$

====

- Test system: Collectotrichum graminicola (Cg)
- protocol: Growth inhibition assay of fungal pathogens
- Assay type: cell-based
- condition_set: 48 h, Table 4b, read-out: Concentration at 90% Inhibition Cg
measured_property: IC90 (µg/mL)

>  <compound>
CCOC(=O)c1sc2c(c1C)c(=O)n(C(C)(C)C(=O)N1CCCC1)c(=O)n2C[C@H](OC1CCOCC1)c1ccccc1OC [Compound I-3]

>  <experimental_system>
Collectotrichum graminicola (Cg)

>  <measured_property>
IC90

>  <modifier>
=

>  <endpoint_result>
0.4

$$$$
>  <compound>
CCOC(=O)c1sc2c(c1C)c(=O)n(C(C)(C)C(=O)N1CCCC1)c(=O)n2C[C@H](OCCOC)c1cc(F)ccc1OC [Compound I-13]

>  <experimental_system>
Collectotrichum graminicola (Cg)

>  <measured_property>
IC90

>  <modifier>
=

>  <endpoint_result>
2

$$$$
>  <compound>
CCOC(=O)c1sc2c(c1C)c(=O)n(C(C)(C)C(=O)N1CCCCC1)c(=O)n2C[C@H](OC(C)C)c1ccccc1OC [Compound I-6]

>  <experimental_system>
Collectotrichum graminicola (Cg)

>  <measured_property>
IC90

>  <modifier>
=

>  <endpoint_result>
0.4

$$$$
>  <compound>
CCOC(=O)c1sc2c(c1C)c(=O)n(C(C)(C)C(N)=O)c(=O)n2C[C@H](OCCOC)c1cc(F)ccc1OC [Compound I-10]

>  <experimental_system>
Collectotrichum graminicola (Cg)

>  <measured_property>
IC90

>  <modifier>
≥

>  <endpoint_result>
50

$$$$
>  <compound>
CCOC(=O)c1sc2c(c1C)c(=O)n([C@H](C)C(N)=O)c(=O)n2C[C@H](OCCC#N)c1cc(F)ccc1OC [Compound I-26]

>  <experimental_system>
Collectotrichum graminicola (Cg)

>  <measured_property>
IC90

>  <modifier>
≥

>  <endpoint_result>
50

$$$$

====

IC90 listing for selected compounds.
- Tested on: Fusarium virguliforme (Fv)
- protocol: Growth inhibition assay of fungal pathogens
- Type: cell-based
- condition_set: 48 h, Table 4a, read-out: Concentration at 90% Inhibition Fv
- Method: Compounds of the present invention were evaluated in a growth inhibition assay to determine the ability to control the growth of fungal pathogens, such as Botrtyis cinerea (Bc), Collectotrichum graminicola (Cg), Diplodia maydis (Dm), Fusarium moniliforme (Fm), Fusarium virguhforme (Fv), Phytophthora capsici (Pc), Rhizoctonia solani (Rs), and Septoria tritici (St). […] Plate readings were repeated at both 24 and 48 hours. […]

>  <mol>
CCOC(=O)c1sc2c(c1C)c(=O)n(C(C)(C)C(=O)N1CCCCC1)c(=O)n2C[C@H](OC1CCOCC1)c1ccccc1OC

>  <modifier>
=

>  <IC90 / µg/mL>
0.4

$$$$
>  <mol>
CCOC(=O)c1sc2c(c1C)c(=O)n(C(C)(C)C(=O)NC(C)C)c(=O)n2C[C@H](OCCOC)c1cc(F)ccc1OC

>  <modifier>
=

>  <IC90 / µg/mL>
0.4

$$$$
>  <mol>
CCOC(=O)c1sc2c(c1C)c(=O)n(C(C)(C)C(=O)NC(C)C)c(=O)n2C[C@H](O)c1cc(F)ccc1OC

>  <modifier>
=

>  <IC90 / µg/mL>
0.08

$$$$
>  <mol>
CCOC(=O)c1sc2c(c1C)c(=O)n(C(C)(C)C(=O)NC(C)C)c(=O)n2C[C@H](OC1CCOCC1)c1ccccc1OC

>  <modifier>
=

>  <IC90 / µg/mL>
2

$$$$
>  <mol>
CCOC(=O)c1sc2c(c1C)c(=O)n(C(C)(C)C(=O)N1CCOCC1)c(=O)n2C[C@H](OC(C)C)c1ccccc1OC

>  <modifier>
≥

>  <IC90 / µg/mL>
50

$$$$
>  <mol>
CCOC(=O)c1sc2c(c1C)c(=O)n(C(C)(C)C(=O)N1CCCC1)c(=O)n2C[C@H](OCCC#N)c1cc(F)ccc1OC

>  <modifier>
=

>  <IC90 / µg/mL>
2

$$$$
>  <mol>
CCOC(=O)c1sc2c(c1C)c(=O)n(C(C)(C)C(=O)N1CCCC1)c(=O)n2C[C@H](OC1CCOCC1)c1ccccc1OC

>  <modifier>
=

>  <IC90 / µg/mL>
0.4

$$$$
>  <mol>
CCOC(=O)c1sc2c(c1C)c(=O)n(C(C)(C)C(=O)NC(C)C)c(=O)n2C[C@H](OCCC#N)c1cc(F)ccc1OC

>  <modifier>
=

>  <IC90 / µg/mL>
0.4

$$$$
>  <mol>
CCOC(=O)c1sc2c(c1C)c(=O)n(C(C)(C)C(=O)NC(C)C)c(=O)n2C[C@H](OCCO)c1cc(F)ccc1OC

>  <modifier>
=

>  <IC90 / µg/mL>
2

$$$$
>  <mol>
CCOC(=O)c1sc2c(c1C)c(=O)n(C(C)(C)C(=O)N1CCCCC1)c(=O)n2C[C@H](OC(C)C)c1ccccc1OC

>  <modifier>
=

>  <IC90 / µg/mL>
0.4

$$$$
>  <mol>
CCOC(=O)c1sc2c(c1C)c(=O)n(C(C)(C)C(=O)N1CCCC1)c(=O)n2C[C@H](OCCO)c1cc(F)ccc1OC

>  <modifier>
=

>  <IC90 / µg/mL>
2

$$$$
>  <mol>
CCOC(=O)c1sc2c(c1C)c(=O)n(C(C)(C)C(=O)N1CCCC1)c(=O)n2C[C@H](OC(C)C)c1ccccc1OC

>  <modifier>
=

>  <IC90 / µg/mL>
0.4

$$$$
>  <mol>
CCOC(=O)c1sc2c(c1C)c(=O)n(C(C)(C)C(N)=O)c(=O)n2C[C@H](OCCO)c1cc(F)ccc1OC

>  <modifier>
≥

>  <IC90 / µg/mL>
50

$$$$
